# System: ACHN renal
# test details: NCI tumour cell line growth inhibition, 48 h
property label: TGI

See these solved cases before continuing.
INSERT INTO measurements (molecule, property_label, measured_value) VALUES
  ('CC(C)(C)c1cc(O)c(O)c(C(C)(C)C)c1', 'TGI', '4.13 µM'),
  ('Cc1nn(-c2ccc(F)cc2)c2ncnc(Nc3ccc(NC(=O)Nc4ccc(Cl)c(C(F)(F)F)c4)cc3)c12', 'TGI', '5.62 µM'),
  ('COC(=O)C1=C(C(=O)OC)C2OC1C1C2C2(C)C(C)=C(C)C1(C)S2=O (centres undefined)', 'TGI', '12.9 µM'),
  ('COC1(C)CC2N(C(=O)c3ccccc3)N=C(c3ccccc3)CC2(C)O1 (centres undefined)', 'TGI', '> 100 µM'),
  ('C[C@@H]1CC[C@H]2C(COCC3=C(C(F)(F)F)O[C@@H]4O[C@@]5(C)CC[C@H]6[C@H](C)CC[C@@H]3[C@@]46OO5)=C(C(F)(F)F)O[C@@H]3O[C@@]4(C)CC[C@@H]1[C@]32OO4', 'TGI', '> 100 µM');

For the molecule `COc1cc2c(c3c1C=CCO3)C(=O)c1ccccc1C2=O` , what TGI is on record?
> 100 µM

For the molecule `COc1ccc(NC(=O)Nc2n[nH]c3ccccc23)cc1` , what TGI is on record?
> 100 µM

For the molecule CCCCCCCCCC[C@@H](O)[C@H]1CC[C@H]([C@H]2CC[C@H]([C@H](O)CCCCCCCCCC[C@@H]3CC(CC(C)=O)C(=O)O3)O2)O1 (some centres undefined) , what TGI is on record?
> 50 µM

For the molecule C=C1C(O)C2CCC(C)(C)C(=O)C2=C(CC(C)C)C12CC2 (centres undefined) , what TGI is on record?
> 100 µM

----------
# System: SW-620 colon
# test details: NCI tumour cell line growth inhibition, 48 h; in the data active = GI50 below about 0.43 µM; inactive = the rest
Respond only with the outcome that fits, drawn from active, inactive

The examples below pair each entry with its known result.
INSERT INTO measurements (smiles_str, assigned_class) VALUES
  ('COc1ccc(/C=C/C=C(/C#N)C(N)=S)cc1', 'inactive'),
  ('Cc1nn(-c2ccc(F)cc2)c2ncnc(Nc3ccc(NC(=O)Nc4ccc(Cl)c(C(F)(F)F)c4)cc3)c12', 'inactive'),
  ('O=C(Nc1nc2ccccc2s1)OCC(F)(F)F', 'inactive');

What outcome does the record of this test show for `Cc1nn(-c2ccc(S(=O)(=O)[O-])cc2)c([O-])c1N=[N+](C)c1ccc(-c2ccc(N=Nc3ccc4c(S(=O)(=O)[O-])cc(S(=O)(=O)[O-])c(N)c4c3[O-])c([O-])c2)cc1[O-].[Cu+2].[Cu+2].[Na+]` ?
inactive

What outcome does the record of this test show for `Cc1cc2nc3c4cc(Cl)ccc4n(CCN(C)C)c3nc2cc1C` ?
inactive

What outcome does the record of this test show for `O=C(c1ccc2ccccc2c1)c1c(C(F)(F)F)n([O-])c2cc(Cl)c(Cl)cc2[n+]1=O` ?
inactive

What outcome does the record of this test show for `O=C1/C(=C/c2ccc(F)cc2)CCOc2ccc([N+](=O)[O-])cc21` ?
inactive

What outcome does the record of this test show for `Oc1ccccc1/C=N/Nc1ccc2ccccc2n1` ?
inactive

What outcome does the record of this test show for `COc1cc2ncn(-c3cc(OCc4ccccc4Cl)c(C(N)=O)s3)c2cc1OC` ?
active
